The values you see were collected from paper PMC6002460.

- Test target: human CB1 receptor (Homo sapiens, UniProt P21554)
- Construct: expressed in transfected cells; host or cells: CHO cells (membrane preparations)
- Sequence (P21554 whole entry): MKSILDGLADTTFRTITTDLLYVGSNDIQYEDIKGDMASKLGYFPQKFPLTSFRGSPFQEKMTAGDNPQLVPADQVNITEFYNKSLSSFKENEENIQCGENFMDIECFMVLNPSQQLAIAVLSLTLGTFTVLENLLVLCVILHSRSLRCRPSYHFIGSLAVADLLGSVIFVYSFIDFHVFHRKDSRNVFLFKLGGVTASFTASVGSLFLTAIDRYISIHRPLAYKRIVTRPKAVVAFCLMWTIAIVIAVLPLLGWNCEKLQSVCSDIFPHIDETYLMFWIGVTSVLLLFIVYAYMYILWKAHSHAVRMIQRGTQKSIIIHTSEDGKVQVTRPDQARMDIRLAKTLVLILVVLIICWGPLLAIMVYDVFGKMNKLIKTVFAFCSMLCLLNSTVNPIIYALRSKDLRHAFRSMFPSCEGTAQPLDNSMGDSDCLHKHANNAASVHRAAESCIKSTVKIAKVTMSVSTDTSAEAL
- Protocol summary: biochemical
- Type: binding
- Stated conditions: [3H]CP55,940 0.1 nM, CHO cell membranes; read-out: Ki ± SEM Human CB1
Value type: log10(Ki) (log10 of the value in nM)
Scale type: logarithmic (base 10). Underlying Ki unit: nM.

O=C(c1cccc2ccccc12)c1cn(Cc2ccc(F)cc2)c2ccccc12; 0.51
CC(C)(NC(=O)c1nn(CC2CCOCC2)c2ccccc12)c1ccccc1; 0.09
CC(C)(NC(=O)c1cn(CCCCCF)c2ccccc12)c1ccccc1; 0.14
CC(C)(C)[C@H](NC(=O)c1nn(CCCCCF)c2ccccc12)C(N)=O; 0.16
COC(=O)[C@@H](OC(=O)c1nn(CC2CCCCC2)c2ccccc12)C(C)(C)C; 1.02
NC(=O)[C@H](Cc1ccccc1)NC(=O)c1nn(CCCCCF)c2ccccc12; 2.10

Could you report log10(Ki) for every entry in the following list?
1. COC(=O)[C@@H](NC(=O)c1nn(CCCCCF)c2ccccc12)C(C)(C)C
2. CC(C)(C)[C@H](NC(=O)c1cn(CCCCCF)c2ccccc12)C(N)=O
3. COC(=O)[C@@H](NC(=O)c1nn(Cc2ccc(F)cc2)c2ccccc12)C(C)C

A:
1: 1.37; 2: 0.43; 3: -0.41

Go through the list and state log10(Ki) for each entry.
1. O=C(c1ccc(F)c2ccccc12)c1cn(CCCCCF)c2ccccc12
2. CC(C)[C@H](NC(=O)c1nn(CCCCCCl)c2ccccc12)C(N)=O
3. CC(C)[C@H](NC(=O)c1nn(Cc2ccccc2F)c2ccccc12)C(N)=O [compound 19, AB-FUBINACA (2-F-benzyl-isomer)]
4. O=C(Nc1cccc2ccccc12)c1cn(Cc2ccc(F)cc2)c2ccccc12

A:
[-0.07, 0.61, 0.84, 0.87]

Parameter requested: log10(Ki). Apply to each item below.
1. O=C(c1ccc2c(c1)c1ccccc1n2CCCCCF)c1cccc2ccccc12
2. CCCCCn1cc(C(=O)c2cccc3ccccc23)c2ccccc21 [compound 3, JWH-018, reference compound]
3. NC(=O)[C@H](Cc1ccccc1)NC(=O)c1nn(Cc2ccc(F)cc2)c2ccccc12
4. CC(C)[C@H](NC(=O)c1nn(CC2CCCCC2)c2ccccc12)C(N)=O
5. COC(=O)[C@@H](NC(=O)c1cn(CC2CCCCC2)c2ccccc12)C(C)(C)C

A:
1.35
0.18
1.75
0.24
-0.39

---

- Test target: human GPR55 (Homo sapiens)
- Construct: host or cells: CHO cells
- Sequence (Q9Y2T6 whole entry): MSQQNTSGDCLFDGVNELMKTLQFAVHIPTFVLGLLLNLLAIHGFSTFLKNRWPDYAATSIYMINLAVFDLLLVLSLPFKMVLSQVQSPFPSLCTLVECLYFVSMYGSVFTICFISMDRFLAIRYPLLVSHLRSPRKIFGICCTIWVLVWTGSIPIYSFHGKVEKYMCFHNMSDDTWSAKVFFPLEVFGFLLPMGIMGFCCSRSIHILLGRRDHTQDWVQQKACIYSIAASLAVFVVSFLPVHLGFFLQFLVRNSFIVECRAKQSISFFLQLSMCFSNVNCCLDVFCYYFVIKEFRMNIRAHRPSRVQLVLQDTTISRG
- Protocol summary: β-Arrestin PathHunter assay, recombinant CHO cells expressing GPR55
- Type: cell-based
Answer each item with its documented EC50.

For orientation, consider the following solved cases.
COC(=O)[C@@H](NC(=O)c1nn(CCCCCF)c2ccccc12)C(C)(C)C [compound 11, 5F-ADB]; > 10 µM
COC(=O)[C@@H](OC(=O)c1nn(CC2CCCCC2)c2ccccc12)C(C)(C)C [compound 34]; > 10 µM

Q: Form: Entry = CC(C)(NC(=O)c1nn(CC2CCOCC2)c2ccccc12)c1ccccc1 [compound 33] | System = human GPR55 (Homo sapiens) | EC50 = ____
A: > 10 µM
